Attribution: ChEMBL document CHEMBL5338818

# assay_system: Protein cereblon/Serine/threonine-protein kinase PLK4 (Homo sapiens, UniProt O00444+Q96SW2)
# Sequence (O00444 whole entry, looked up): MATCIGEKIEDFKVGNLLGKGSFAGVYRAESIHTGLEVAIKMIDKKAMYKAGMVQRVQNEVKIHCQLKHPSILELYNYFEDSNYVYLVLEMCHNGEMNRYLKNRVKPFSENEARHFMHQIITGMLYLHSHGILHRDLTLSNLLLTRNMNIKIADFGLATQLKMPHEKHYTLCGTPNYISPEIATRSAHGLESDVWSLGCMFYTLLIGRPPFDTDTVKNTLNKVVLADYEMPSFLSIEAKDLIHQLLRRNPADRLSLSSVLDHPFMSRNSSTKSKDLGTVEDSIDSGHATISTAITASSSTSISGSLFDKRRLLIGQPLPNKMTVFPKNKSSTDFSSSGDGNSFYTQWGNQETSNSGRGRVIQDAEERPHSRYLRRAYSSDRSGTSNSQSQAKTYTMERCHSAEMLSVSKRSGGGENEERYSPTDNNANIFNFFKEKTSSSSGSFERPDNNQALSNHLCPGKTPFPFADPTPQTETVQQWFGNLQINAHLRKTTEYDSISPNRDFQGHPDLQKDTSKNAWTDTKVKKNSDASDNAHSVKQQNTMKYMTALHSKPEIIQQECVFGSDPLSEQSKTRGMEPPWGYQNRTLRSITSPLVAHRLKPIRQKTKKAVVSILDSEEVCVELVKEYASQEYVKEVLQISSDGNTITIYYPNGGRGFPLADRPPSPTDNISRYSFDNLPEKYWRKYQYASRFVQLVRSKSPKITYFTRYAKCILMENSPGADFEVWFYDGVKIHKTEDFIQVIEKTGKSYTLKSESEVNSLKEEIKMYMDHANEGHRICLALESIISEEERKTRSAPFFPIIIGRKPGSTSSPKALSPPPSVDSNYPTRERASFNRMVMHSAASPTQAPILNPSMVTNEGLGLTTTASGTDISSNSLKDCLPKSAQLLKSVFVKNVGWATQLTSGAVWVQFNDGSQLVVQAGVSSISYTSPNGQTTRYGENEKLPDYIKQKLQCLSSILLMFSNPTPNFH
# Sequence (Q96SW2 whole entry, looked up): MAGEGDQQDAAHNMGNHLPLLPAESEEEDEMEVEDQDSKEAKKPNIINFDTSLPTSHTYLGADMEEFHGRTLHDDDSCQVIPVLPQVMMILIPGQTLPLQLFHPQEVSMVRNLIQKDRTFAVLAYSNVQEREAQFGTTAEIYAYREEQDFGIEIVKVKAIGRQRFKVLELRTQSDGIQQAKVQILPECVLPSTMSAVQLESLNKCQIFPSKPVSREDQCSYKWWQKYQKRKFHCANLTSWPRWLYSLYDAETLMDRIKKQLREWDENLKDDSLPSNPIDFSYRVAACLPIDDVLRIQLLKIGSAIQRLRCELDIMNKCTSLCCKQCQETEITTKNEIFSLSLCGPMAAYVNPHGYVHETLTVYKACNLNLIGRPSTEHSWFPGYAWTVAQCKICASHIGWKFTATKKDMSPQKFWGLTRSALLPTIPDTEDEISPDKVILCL
# experiment_description: Protac activity at CRBN/PLK4 in human MCF7 cells at 10 uM incubated for 48 hrs by Western blot analysis
# Assay type: cell-based
// thresholds for Activity classes: group 1 = under 30%, group 2 = from 30% up to 40%, group 3 = 40% and over

Bin? Cc1cc(Nc2nc(NCc3ccc(F)cc3F)nc3c2cnn3C2CCN(C(=O)CCCCCCCCCCCCCCCOc3ccc4c(c3)C(=O)N(C3CCC(=O)NC3=O)C4=O)CC2)n[nH]1 (configuration not stated) group 3

Bin? Cc1cc(Nc2nc(NCc3ccc(F)cc3F)nc3c2cnn3C2CCN(Cc3ccc(C4CCN(c5ccc6c(c5)C(=O)N(C5CCC(=O)NC5=O)C6=O)CC4)cc3)CC2)n[nH]1 (configuration not stated) group 1

Bin? Cc1cc(Nc2nc(NCc3ccc(F)cc3F)nc3c2cnn3C2CCN(C(=O)C3CCN(c4ccc5c(c4)C(=O)N(C4CCC(=O)NC4=O)C5=O)C3)CC2)n[nH]1 (configuration not stated) group 3

Bin? Cc1cc(Nc2nc(NCc3ccc(F)cc3F)nc3c2cnn3C2CCN(C(=O)COCCOCCOc3ccc4c(c3)C(=O)N(C3CCC(=O)NC3=O)C4=O)CC2)n[nH]1 (configuration not stated) group 2

Bin? Cc1cc(Nc2nc(NCc3ccc(F)cc3F)nc3c2cnn3C2CCN(CC3CN(c4ccc5c(c4)C(=O)N(C4CCC(=O)NC4=O)C5=O)C3)CC2)n[nH]1 (configuration not stated) group 3

Bin? Cc1cc(Nc2nc(NCc3ccc(F)cc3F)nc3c2cnn3C2CCN(C(=O)C3CC4(C3)CN(c3ccc5c(c3)C(=O)N(C3CCC(=O)NC3=O)C5=O)C4)CC2)n[nH]1 (configuration not stated) group 1

Bin? Cc1cc(Nc2nc(NCc3ccc(F)cc3F)nc3c2cnn3C2CCN(C(=O)CCCCCCCCCCCCCOc3ccc4c(c3)C(=O)N(C3CCC(=O)NC3=O)C4=O)CC2)n[nH]1 (configuration not stated) group 2

Bin? Cc1cc(Nc2nc(NCc3ccc(F)cc3F)nc3c2cnn3C2CCN(C(=O)CCOCCOCCCOc3ccc4c(c3)C(=O)N(C3CCC(=O)NC3=O)C4=O)CC2)n[nH]1 (configuration not stated) group 3

Bin? Cc1cc(Nc2nc(NCc3ccc(F)cc3F)nc3c2cnn3C2CCN(C(=O)COCCOc3ccc4c(c3)C(=O)N(C3CCC(=O)NC3=O)C4=O)CC2)n[nH]1 (configuration not stated) group 1

Bin? Cc1cc(Nc2nc(NCc3ccc(F)cc3F)nc3c2cnn3C2CCN(C(=O)CCCCCOc3ccc4c(c3)C(=O)N(C3CCC(=O)NC3=O)C4=O)CC2)n[nH]1 (configuration not stated) group 3

Bin? Cc1cc(Nc2nc(NCc3ccc(F)cc3F)nc3c2cnn3C2CCN(C(=O)CCOCCOc3ccc4c(c3)C(=O)N(C3CCC(=O)NC3=O)C4=O)CC2)n[nH]1 (configuration not stated) group 1

Bin? Cc1cc(Nc2nc(NCc3ccc(F)cc3F)nc3c2cnn3C2CCN(CC3CCN(c4ccc5c(c4)C(=O)N(C4CCC(=O)NC4=O)C5=O)C3)CC2)n[nH]1 (configuration not stated) group 1
